Molecular target: T1, TSP-1 protein (novoprotein, Catalog No. CU45) (UniProt P07996 19-1170, limits assumed)
T1 construct: Bought protein coated on the ELISA plate; also called Thrombospondin-1
T1 sequence (P07996 19-1170 limits assumed): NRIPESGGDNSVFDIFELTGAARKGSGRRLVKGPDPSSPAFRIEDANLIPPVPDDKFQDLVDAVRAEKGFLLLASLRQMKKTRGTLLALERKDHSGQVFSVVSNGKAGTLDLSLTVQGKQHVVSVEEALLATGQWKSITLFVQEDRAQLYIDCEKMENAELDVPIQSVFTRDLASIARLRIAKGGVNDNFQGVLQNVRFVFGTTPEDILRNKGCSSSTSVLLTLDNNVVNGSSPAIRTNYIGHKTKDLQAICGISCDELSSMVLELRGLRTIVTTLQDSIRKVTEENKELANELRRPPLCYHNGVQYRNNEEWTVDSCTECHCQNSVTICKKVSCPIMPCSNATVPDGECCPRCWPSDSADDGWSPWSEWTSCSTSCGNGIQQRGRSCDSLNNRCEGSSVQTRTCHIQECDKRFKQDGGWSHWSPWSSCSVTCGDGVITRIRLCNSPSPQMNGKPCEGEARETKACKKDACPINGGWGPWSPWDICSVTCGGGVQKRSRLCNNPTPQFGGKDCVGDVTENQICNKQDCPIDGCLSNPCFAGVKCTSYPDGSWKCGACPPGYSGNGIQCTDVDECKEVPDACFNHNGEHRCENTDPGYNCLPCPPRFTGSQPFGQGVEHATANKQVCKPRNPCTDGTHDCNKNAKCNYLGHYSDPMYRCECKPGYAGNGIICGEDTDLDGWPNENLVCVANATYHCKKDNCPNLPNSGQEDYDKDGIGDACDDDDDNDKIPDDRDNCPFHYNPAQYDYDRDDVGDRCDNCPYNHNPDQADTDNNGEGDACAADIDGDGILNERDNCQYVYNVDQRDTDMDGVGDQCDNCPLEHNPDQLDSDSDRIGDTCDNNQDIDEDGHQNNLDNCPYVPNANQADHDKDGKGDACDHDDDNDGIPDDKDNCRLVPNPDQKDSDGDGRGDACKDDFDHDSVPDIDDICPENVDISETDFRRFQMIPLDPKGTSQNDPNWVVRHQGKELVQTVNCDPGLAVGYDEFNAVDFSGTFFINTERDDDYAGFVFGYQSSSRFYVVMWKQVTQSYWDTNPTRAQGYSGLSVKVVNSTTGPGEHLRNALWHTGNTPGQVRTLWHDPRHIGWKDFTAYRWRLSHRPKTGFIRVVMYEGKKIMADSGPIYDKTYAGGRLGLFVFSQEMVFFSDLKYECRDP
Test: competition ELISA, TSP-1 coated, CD36-Fc 0.25 µg/mL as competitor, peptide 100 µM
RECORDED METRIC: Blocking rate (Mean, %)
Give your result in % as a bare value.

Below, 10 binders whose answers are already recorded.
[[record]]
binder = "Ac-TQDAEDPTA-NH2 [SEQ ID NO: 22]"
recorded_metric = "Blocking rate (Mean, %)"
unit_string = "%"
readout_number = 40.9

[[record]]
binder = "TQDAEDN (Head-to-tail cyclization, cyclic peptide; also called TQDAEDN; cyclo[Thr-Gln-Asp-Ala-Glu-Asp-Asn]) [SEQ ID NO: 40]"
recorded_metric = "Blocking rate (Mean, %)"
unit_string = "%"
readout_number = 37.5

[[record]]
binder = "TQDPEDNTAS (Head-to-tail cyclization, cyclic peptide) [SEQ ID NO: 46]"
recorded_metric = "Blocking rate (Mean, %)"
unit_string = "%"
readout_number = 56.1

[[record]]
binder = "Ac-TQDAEDN-NH2 (also called TQDAEDN) [SEQ ID NO: 06]"
recorded_metric = "Blocking rate (Mean, %)"
unit_string = "%"
readout_number = 17.7

[[record]]
binder = "Ac-TQDPEDN-NH2 (also called TQDPEDN) [SEQ ID NO: 14]"
recorded_metric = "Blocking rate (Mean, %)"
unit_string = "%"
readout_number = 27.9

[[record]]
binder = "Ac-TQDAEDNT-NH2 [SEQ ID NO: 15]"
recorded_metric = "Blocking rate (Mean, %)"
unit_string = "%"
readout_number = 30.6

[[record]]
binder = "QDAEDNT (Head-to-tail cyclization, cyclic peptide; also called QDAEDNT; cyclo[Gln-Asp-Ala-Glu-Asp-Asn-Thr]) [SEQ ID NO: 45]"
recorded_metric = "Blocking rate (Mean, %)"
unit_string = "%"
readout_number = 46

[[record]]
binder = "Ac-TQDAEDPTAS-NH2 [SEQ ID NO: 25]"
recorded_metric = "Blocking rate (Mean, %)"
unit_string = "%"
readout_number = 33

[[record]]
binder = "Ac-TQDPAEDN-NH2 [SEQ ID NO: 48]"
recorded_metric = "Blocking rate (Mean, %)"
unit_string = "%"
readout_number = 29.7

[[record]]
binder = "Ac-TQDAEDNTASH-NH2 [SEQ ID NO: 33]"
recorded_metric = "Blocking rate (Mean, %)"
unit_string = "%"
readout_number = 21.4


Report Blocking rate (Mean, %) for Ac-QDAEDNTAS-NH2 [SEQ ID NO: 23] please.
22.8

Subsequent entry: Ac-TQDAEDNTAS-NH2 [SEQ ID NO: 24]
32.6

Subsequent entry: Ac-TQDPEDNTAS-NH2 [SEQ ID NO: 26]
53.8

Subsequent entry: YRVRFLAKENVTQDAEDN (Printed as 'Without modification'; also called Positive control group) [SEQ ID NO: 50]
23.4

Subsequent entry: Ac-TQDAEDNTQD-NH2 [SEQ ID NO: 49]
30.2

Subsequent entry: Ac-TQDAEDNTVSFLQ-NH2 [SEQ ID NO: 36]
23.1
